- Tested on: Rattus norvegicus
- methodNotes: Antiinflammatory activity against carrageenan-induced paw edema in Sprague-Dawley rat at 15 mg/kg, po relative to indomethacin after 1 hr
- Type: functional

chemicalSmiles	inhibition in vivo at 15 mg/kg [%]
Cc1cc(C)n(-c2nc3nc4c(c(-c5ccccc5)c3c(=O)[nH]2)CCCC4)n1	14.5
NNc1nc2nc3c(c(-c4ccccc4)c2c(=O)[nH]1)CCCC3	53.5
CC(=O)NNc1nc2nc3c(c(-c4ccccc4)c2c(=O)[nH]1)CCCC3	45.5
Nc1n[nH]c2nc3nc4c(c(-c5ccccc5)c3c(=O)n12)CCCC4	17.7

====

Property: inhibition in vivo at 15 mg/kg; scope: individual compounds
- Tested on: Rattus norvegicus
- methodNotes: Antiinflammatory activity against carrageenan-induced paw edema in Sprague-Dawley rat at 15 mg/kg, po relative to indomethacin after 2 hrs
- Assay type: functional

chemicalSmiles	testSystem	inhibition in vivo at 15 mg/kg, %
CC(=O)NNc1nc2nc3c(c(-c4ccccc4)c2c(=O)[nH]1)CCCC3	Rattus norvegicus	39.2
Cc1cc(C)n(-c2nc3nc4c(c(-c5ccccc5)c3c(=O)[nH]2)CCCC4)n1	Rattus norvegicus	1.5
Nc1n[nH]c2nc3nc4c(c(-c5ccccc5)c3c(=O)n12)CCCC4	Rattus norvegicus	2.1
NNc1nc2nc3c(c(-c4ccccc4)c2c(=O)[nH]1)CCCC3	Rattus norvegicus	35.7

Data origin: ChEMBL document CHEMBL1143876
